# TESTED_SYSTEM: T1, GST-MUPP1 PDZ domain 11 (Homo sapiens (Human)), O75970
# T1 chain: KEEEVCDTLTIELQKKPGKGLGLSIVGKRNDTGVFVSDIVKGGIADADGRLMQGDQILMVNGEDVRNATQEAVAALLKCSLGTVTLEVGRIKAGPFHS
# PROCEDURE_SUMMARY: G' assay; further: key of the grades not given here
MEASURED_ENDPOINT: Classification

Request: Write down Classification measured for item KTMPAATYRLLTGQEQPVYL (modifications not checked) [MINT-3]
Result: 2 A450 class

Request: Write down Classification measured for item GPVPGEPAKPKTSAHHATFV (modifications not checked) [RGS12 (regulator of G-protein signaling 12]
Result: 1 A450 class

Request: Write down Classification measured for item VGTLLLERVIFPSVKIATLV (modifications not checked) [AdenoE4 typ9]
Result: 5 A450 class

Request: Write down Classification measured for item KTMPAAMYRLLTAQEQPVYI (modifications not checked) [MINT-1]
Result: 5 A450 class
